assay: Acute Toxicity in Rats; conditions: rat, in vivo, iv, male rats
Structures can show the parent of a compound that is named as a salt.
Measurement Name: LD50 (mg/kg)

# Compound, Measurement Name, Quantitative Result
measured = [
    ("O=C(O)c1ccc2c(c1)CCC(Cn1ccnc1)C2 (stereo not shown) [Compound A, hydrochloride hemihydrate]", "LD50", 807),
]

----------
test: Acute Toxicity in Rats; conditions: rat, in vivo, po, female rats
Where a name gives a salt, the structure may show the parent alone.

# Compound, LD50 / mg/kg
data = [
    ("O=C(O)c1ccc2c(c1)CCC(Cn1ccnc1)C2 (stereo not shown) [Compound A, hydrochloride hemihydrate]", 1990),
]

----------
experiment: Acute Toxicity in Rats; details: rat, in vivo, po, male rats
Structures can show the parent of a compound that is named as a salt.
Measurement Name: LD50

# Compound, Result
measured = [
    ("O=C(O)c1ccc2c(c1)CCC(Cn1ccnc1)C2 (stereo not shown) [Compound A, hydrochloride hemihydrate]", "2440 mg/kg"),
]

----------
assay: Acute Toxicity in Rats; conditions: rat, in vivo, iv, female rats
Where a name gives a salt, the structure may show the parent alone.
Measurement Name: LD50

# Compound, Result
measured = [
    ("O=C(O)c1ccc2c(c1)CCC(Cn1ccnc1)C2 (stereo not shown) [Compound A, hydrochloride hemihydrate]", "783 mg/kg"),
]
